- TARGET_SYSTEM: WDR5 (Homo sapiens (Human), UniProt P61964)
- EXPERIMENTAL_PROTOCOL: TR-FRET binding assay, displacement of 10mer-Thr-FAM probe from His-tagged WDR5
- CONDITION_NOTES: Inhibition of WDR5 by TR-FRET assay
pKi: −log10 of the molar value.
# label = yes (1) if pKi >= 9 else no (0)

{"columns": ["COMPOUND", "CLASS_LABEL"],
 "data": [
  ["COc1cc(OC)cc(C(C)NC(=O)c2cc(Cn3ccnc3C)cc(-c3ccc(F)c(CO)c3)n2)c1 (stereo not drawn)", "no (0)"],
  ["COc1cc(F)ccc1-c1cc(Cn2ccnc2C)cc(C(=O)NCc2ccc(Cl)c(Cl)c2)n1", "no (0)"]
]}

// inclusive: pKi at least 9? input: Cc1cnc(CNC(=O)c2cc(CNC3=NCCN3)cc(-c3ccc(F)nc3C)n2)cn1
no (0)

// query: Cc1ccnc(C(NC(=O)c2cc(CNC3=NCCN3)cc(-c3cnccc3C)c2)C2CC2)c1 (stereo not drawn)
yes (1)

Same lookup for Cc1nc(F)ccc1-c1cc(CNC2=NCCN2)cc(C(=O)NCc2ccc(Cl)c(F)c2)n1 , please.
yes (1)

Query COc1cc(CNC(=O)c2cc(CNC3=NCCN3)cc(-c3cnc(OC)c(Cl)c3)c2)cc(OC)c1 next
yes (1)

What do we get for CCn1cc(-c2cc(CNC(=N)C3CCOC3)cc(C(=O)N[C@H](c3ccc(F)c(C)c3)C3CC3)c2)c(C(F)(F)F)n1 (stereo partly drawn) ?
no (0)

One more compound: COc1cc(OC)cc(C(C)NC(=O)c2cc(CNC3=NCCN3)cc(-c3ccc(F)nc3C)c2)c1 (stereo not drawn)
yes (1)

Field entry: COc1cc(CNC(=O)c2cc(CNC3=NCCN3)cc(-c3ccc(F)cc3C)c2N)cc(OC)c1
no (0)

Further, for COc1ccc(CNC(=O)c2cc(CNC(=N)N)cc(-c3ccnc(C)c3)c2)cc1Cl ?
no (0)

Repeat for the following compound: Cc1cnc(CNC(=O)c2cc(CNC3=NCCN3)cc(-c3ccc(F)nc3C)c2)cn1
no (0)

Moving on to Cc1ccc(CNC(=O)c2cc(CNC(=N)N)cc(-c3ccnc(C)c3)c2)cn1
no (0)

Also, Cc1cc(CNC(=O)c2cc(CNC3=NCCN3)cc(-c3ccc(F)nc3C)c2)ccc1Cl please.
yes (1)

How about COc1ncc(C)cc1-c1cc(CNC2=NCCN2)cc(C(=O)NCc2ccc(Cl)c(Cl)c2)n1 ?
yes (1)

Moving on to the next compound: Cc1ccnc(C(NC(=O)c2cc(Cn3ccnc3C)cc(N3CCOCC3)c2)C2CC2)c1 (stereo not drawn)
no (0)

Please give the result for Cc1ccnc(C(NC(=O)c2cc(CNC3=NCCN3)cc(-c3cc(C)cnc3F)c2)C2CC2)c1 (stereo not drawn) too.
yes (1)

How about this compound: CCn1cc(-c2cc(CNC(=N)C3CC3)cc(C(=O)N[C@H](c3ccc(F)c(C)c3)C3CC3)c2)c(C(F)(F)F)n1
yes (1)

Now give it for COc1cc(CNC(=O)c2cc(CNC3=NCCN3)cc(-c3cnccc3C)c2)ccc1Cl too.
no (0)

---

- TARGET_SYSTEM: WDR5 (Homo sapiens (Human), UniProt P61964)
- EXPERIMENTAL_PROTOCOL: Fluorescence polarization anisotropy (FPA) competition assay, displacement of FITC-MLL or 10mer-Thr-FAM peptide
- Type: binding
- CONDITION_NOTES: Table B2, WDR5 WIN-site binding affinity; values not less than 1 nM (FPA)
- Description: The assay is run in 384-well format and is read on a BioTek Cytation. […] Replicate values are fit to a 4-parameter fit in XLFit to generate a single IC50 value for each compound that is then converted to a Ki value. Experiments are repeated to generate a 2nd, independent Ki value; values from the two experiments are averaged to produce the reported Ki value for the compound.
MEASUREMENT_KIND: pKi
Answers are plain numbers, as −log10 of the molar value.

Solved entries:
{"columns": ["RECORD_SMILES", "pKi"],
 "data": [
  ["O=C(NCc1cc(Cl)ccn1)c1ccc(F)c(CNC2=NCCN2)c1", 8.04],
  ["Cc1cc(C)cc(CNC(=O)c2cc(F)c(F)c(CNC3=NCCN3)c2)c1", 8.09]
]}

// below: pKi requested for another molecule
Write down the reported pKi of Cc1cc(C)cc(CNC(=O)c2ccc(F)c(CNC3=NCCN3)c2)c1 , test system: WDR5 (Homo sapiens (Human), UniProt P61964).
8.07
